Biological target: ER (endogenous, MCF7 cells) (Homo sapiens (Human))
Test: ER transcription assay (MCF7 cells), ERE-luciferase reporter
Type: cell-based
Conditions: inflection point of the inhibition of transcription in MCF7 cells; 0.1 nM estradiol, 24 hours; read-out: MCF7 IC50
Procedure: ER Transcription Assay (MCF7 Cells) The ER transcription assay is a reporter assay that is based on the ability of ER to induce transcription from a luciferase reporter gene containing estrogen response elements (EREs) in the promoter/enhancer region. […] After incubation with compounds for 24 hours, Firefly and Renilla luciferase activities are measured to determine ER transcriptional activity. […] One second total read time after a one second delay. One second total read time after one second delay. […]
pIC50: −log10 of the molar value.
Returns one of rule met or rule not met; rule met when pIC50 is >= 7.

[[record]]
molecule = "CN(C)Cc1ccccc1-c1sc2cc(O)ccc2c1Oc1ccc(/C=C/C(=O)O)cc1"
targetofassay = "ER (endogenous, MCF7 cells) (Homo sapiens (Human))"
classlabel = "rule met"

[[record]]
molecule = "CC(C)OC(=O)/C=C/c1ccc(Oc2c(-c3ccccc3C(C)C)sc3cc(O)ccc23)cc1"
targetofassay = "ER (endogenous, MCF7 cells) (Homo sapiens (Human))"
classlabel = "rule not met"

[[record]]
molecule = "COc1ccc(-c2sc3cc(O)ccc3c2Oc2ccc(/C=C/C(=O)O)cc2)c(C(C)C)c1"
targetofassay = "ER (endogenous, MCF7 cells) (Homo sapiens (Human))"
classlabel = "rule not met"

[[record]]
molecule = "CC(F)c1ccccc1-c1sc2cc(O)ccc2c1Oc1ccc(/C=C/C(=O)O)cc1 (stereo not shown)"
targetofassay = "ER (endogenous, MCF7 cells) (Homo sapiens (Human))"
classlabel = "rule met"

[[record]]
molecule = "CC(=O)/C=C/c1ccc(Oc2c(-c3ccccc3C(C)C)sc3cc(O)ccc23)cc1"
targetofassay = "ER (endogenous, MCF7 cells) (Homo sapiens (Human))"
classlabel = "rule met"


Is reported pIC50 greater than or equal to 7 here: CCC(=O)Oc1ccc2c(Oc3ccc(/C=C/C(=O)O)cc3)c(-c3ccccc3C(C)C)sc2c1
rule met

Check if pIC50 >= 7 (inclusive). Item: [C-]#[N+]c1ccccc1-c1sc2cc(O)ccc2c1Oc1ccc(/C=C/C(=O)O)cc1
rule not met

Decide: is the reported value of pIC50 for CC(C)c1cccc(-c2sc3cc(O)ccc3c2Oc2ccc(/C=C/C(=O)O)cc2)c1 equal to or greater than 7?
rule not met

Check if pIC50 >= 7 (inclusive). Item: COC(=O)/C=C/c1ccc(Oc2c(-c3ccc(O)c(C)c3)sc3cc(O)ccc23)cc1
rule not met

API: above_or_equal(metric=pIC50, cutoff=7) for item Oc1ccc(-c2sc3cc(O)ccc3c2Oc2ccc(/C=C/c3c[nH]cn3)cc2)cc1
rule met

Is the recorded value of pIC50 equal to or greater than 7 for this molecule? CCC(C)c1ccccc1-c1sc2cc(O)ccc2c1Oc1ccc(/C=C/C(=O)O)cc1 (stereo not shown)
rule met

Record COC(=O)/C=C/c1ccc(Oc2c(-c3ccccc3)sc3cc(O)ccc23)cc1 ; criterion: pIC50 no lower than 7. Met?
rule not met

Has Cc1ncccc1-c1sc2cc(O)ccc2c1Oc1ccc(/C=C/C(=O)O)cc1 a recorded pIC50 greater than or equal to 7?
rule not met

Hi team, for CC(C)c1ncoc1-c1sc2cc(O)ccc2c1Oc1ccc(/C=C/C(=O)O)cc1 , is the recorded pIC50 at or above 7?
rule not met

API: above_or_equal(metric=pIC50, cutoff=7) for item CCOC(=O)/C=C/c1ccc(Oc2c(-c3ccccc3C(C)C)sc3cc(O)ccc23)cc1
rule met

Dear colleague, could you confirm whether CNC(=O)/C=C/c1ccc(Oc2c(-c3ccc(C(F)(F)F)cc3)sc3cc(O)ccc23)cc1 has pIC50 at or above 7?
rule met

----------
Molecular target: ER (endogenous, MCF7 cells) (Homo sapiens (Human), UniProt P03372)
Sequence (P03372 whole entry): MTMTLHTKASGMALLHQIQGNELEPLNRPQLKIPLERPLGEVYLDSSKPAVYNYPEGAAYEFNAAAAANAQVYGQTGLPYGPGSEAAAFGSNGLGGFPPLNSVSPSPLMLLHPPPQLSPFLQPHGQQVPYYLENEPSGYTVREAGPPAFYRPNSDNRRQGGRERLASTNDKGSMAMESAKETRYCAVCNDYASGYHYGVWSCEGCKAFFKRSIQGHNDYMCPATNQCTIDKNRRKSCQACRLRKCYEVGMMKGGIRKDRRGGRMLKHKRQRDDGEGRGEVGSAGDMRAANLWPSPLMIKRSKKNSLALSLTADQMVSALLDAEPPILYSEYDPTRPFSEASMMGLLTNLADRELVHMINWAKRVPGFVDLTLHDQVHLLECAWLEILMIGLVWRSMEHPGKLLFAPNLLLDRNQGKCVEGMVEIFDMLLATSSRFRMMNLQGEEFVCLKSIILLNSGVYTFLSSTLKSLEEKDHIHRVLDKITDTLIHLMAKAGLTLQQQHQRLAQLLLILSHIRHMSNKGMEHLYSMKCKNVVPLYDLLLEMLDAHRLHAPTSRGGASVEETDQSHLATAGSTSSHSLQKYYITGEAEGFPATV
Test: ER transcription assay (MCF7 cells), ERE-luciferase reporter
Format: cell-based
Conditions: inflection point of the inhibition of transcription in MCF7 cells; 0.1 nM estradiol, 24 hours; read-out: MCF7 IC50
# pIC50 listing for each entry below
// returns pIC50 (minus log10 of molar concentration), number only

Example results:
[[record]]
chemicalstring = "CCCc1nnc(/C=C/c2ccc(Oc3c(-c4ccccc4C(C)C)sc4cc(O)ccc34)cc2)[nH]1"
valuemeasured = 7.18

[[record]]
chemicalstring = "O=C(O)/C=C/c1ccc(Oc2c(-c3ccccc3C3COC3)sc3cc(O)ccc23)cc1"
valuemeasured = 7.08


Moving on to another molecule below.
Could you share what pIC50 was measured for N#CCc1ccccc1-c1sc2cc(O)ccc2c1Oc1ccc(/C=C/C(=O)O)cc1 , tested on ER (endogenous, MCF7 cells) (Homo sapiens (Human), UniProt P03372)?
7.07
